System: PA-1
EXPERIMENT: Primary qHTS to identify gynecologic anti-cancer compounds using libraries of approved drugs and bioactive compounds (AID 1345084); further: nearly all actives have a fitted effect of over 55% in size
MEASUREMENT_CONTEXT: Gynecologic cancer cell panel viability, ATPlite luminescence, 48 h; series mostly up to 57.5 µM
Results filed as inconclusive are left out. The source made the active and inactive calls. The call rests on the fitted dose curve; in most records, active means well fitted cell-killing curve with a large enough effect; inconclusive means small, poorly fitted or top-dose-only effect, or effect the other way; inactive means flat fitted curve, though single readings scatter.
Mark one answer only. Choices: T for active, F for inactive

Examples from the recorded data:
INSERT INTO results (smiles_string, class_label) VALUES
  ('Cc1ccc(N=CN(C)C=Nc2ccc(C)cc2C)c(C)c1', 'F'),
  ('CC1=C2[C@H]3OC(=O)[C@@H](C)[C@@H]3CC[C@@]2(C)C=CC1=O', 'F'),
  ('C[C@]12CC[C@H]3[C@@H](CCC4=CC(=O)CC[C@@H]43)[C@@H]1CC[C@@H]2O', 'T');

# fetch the recorded call for CCC(=O)O[C@H]1CC[C@H]2[C@@H]3CCC4=CC(=O)CC[C@]4(C)[C@H]3CC[C@]12C here
T

# fetch the recorded call for C[C@]12CC[C@H]3[C@@H](CC=C4C[C@@H](O)CC[C@@]43C)[C@@H]1CC[C@@H]2O here
F

###

Would you mind telling me the reported efficacy of each entry?
MEASUREMENT_CONTEXT: Ebola virus entry assay, green fluorescence channel
Entries with a potency or affinity are not part of this list.
One number for each entry, in %.

Examples from the recorded data:
INSERT INTO results (compound, assay_metric, unit_of_measurement, numeric_value) VALUES
  ('Brc1c(NC2=NCCN2)ccc2nccnc12', 'efficacy', '%', -28.5),
  ('Cc1cc(NC(=O)C2=C(O)c3ccccc3S(=O)(=O)N2C)no1', 'efficacy', '%', -7.71),
  ('CN1CCC(=C2c3ccccc3CCc3sccc32)CC1', 'efficacy', '%', 69.4),
  ('O=C(COc1ccc(Cl)cc1)N1CCN(Cc2ccc3c(c2)OCO3)CC1', 'efficacy', '%', 71.8),
  ('CCCc1cc(C(N)=S)ccn1', 'efficacy', '%', -10.8);

For each of the compounds below, note its efficacy.
1. CC(CC(C#N)(c1ccccc1)c1ccccc1)N(C)C (centres undefined)
2. CCc1nnc(NS(=O)(=O)c2ccc(N)cc2)s1
3. Cc1nc(C2CCCCC2)c(-c2ccc(S(N)(=O)=O)c(F)c2)o1
4. CC(C(O)c1ccccc1)N(C)C/C=C/c1ccccc1 (centres undefined)
5. CCCCN=C(N)N=C(N)N
6. CCC(=O)C(CCN(C)C)(c1ccccc1)c1ccccc1
7. CC(C)(C)c1nnc(NS(=O)(=O)c2ccc(N)cc2)s1
8. Nc1c2c(nc3ccccc13)CCCC2O (centres undefined)

[77.3, -8.59, 44.4, 90.1, 24.1, 68.8, -23, 42.6]

###

EXPERIMENT: qHTS for Inhibitors of the Functional Ribonucleoprotein Complex (vRNP) of Lassa (LASV) Arenavirus: LASV Primary Screen - GLuc reporter signal (AID 1347082); further: nearly all actives have a fitted effect of over 60% in size
MEASUREMENT_CONTEXT: LASV minigenome vRNP, Gaussia luciferase reporter; series mostly up to 57.5 µM
Inconclusive results are not listed. The source made the active and inactive calls. The call rests on the fitted dose curve; tested in HEK293 reporter line.
Mark one answer only. Choices: active, inactive

INSERT INTO measurements (molecule, class_label) VALUES
  ('c1ccc2[nH]c(-c3cscn3)nc2c1', 'inactive'),
  ('OCc1cc(C(O)CNCCCCCCOCCCCc2ccccc2)ccc1O (stereo unspecified)', 'inactive'),
  ('C[N+](C)(C)CCOC(=O)C(O)(c1ccccc1)c1ccccc1', 'inactive'),
  ('NC1(c2ccc(-c3nc4ccn5c(=O)[nH]nc5c4cc3-c3ccccc3)cc2)CCC1', 'active'),
  ('O=C1OC(c2ccc(O)cc2)(c2ccc(O)cc2)c2ccccc21', 'inactive'),
  ('COCC(=O)N(c1c(C)cccc1C)C(C)C(=O)OC (stereo unspecified)', 'inactive'),
  ('Fc1ccc(C(c2ccc(F)cc2)N2CCNCC2)cc1', 'inactive'),
  ('CN1CCN(C2Cc3ccccc3Sc3ccc(Cl)cc32)CC1 (stereo unspecified)', 'inactive'),
  ('Nc1nc2ncc(CNc3ccc(C(=O)N[C@@H](CCC(=O)O)C(=O)O)cc3)nc2c(=O)[nH]1', 'inactive'),
  ('O=C(Nc1ccc([N+](=O)[O-])cc1)Nc1ccc([N+](=O)[O-])cc1', 'inactive');

# fetch the recorded call for OC(CCN1CCCCC1)(c1ccccc1)C1CC2C=CC1C2 (stereo unspecified) here
inactive

# fetch the recorded call for Cn1c(=O)c2c(ncn2CC2OCCO2)n(C)c1=O here
inactive

# fetch the recorded call for CC1=C(C)C(=O)C(C(CCCCCC(=O)O)c2ccccc2)=C(C)C1=O (stereo unspecified) here
inactive

# fetch the recorded call for CCCc1ncc(C(=O)O)s1 here
inactive

# fetch the recorded call for O=C(/C=C/c1ccc(O)c(O)c1)O[C@@H]1C[C@@](OC(=O)/C=C/c2ccc(O)c(O)c2)(C(=O)O)C[C@@H](O)[C@@H]1O here
inactive

# fetch the recorded call for CCn1c(=O)c2c(nc(C=Cc3ccc(OC)c(OC)c3)n2C)n(CC)c1=O here
inactive

# fetch the recorded call for OC(O)C(Cl)(Cl)Cl here
inactive

# fetch the recorded call for CC(C)(C)C(=O)OCOC(=O)[C@@H]1N2C(=O)[C@@H](NC(=O)[C@H](N)c3ccccc3)[C@H]2SC1(C)C here
inactive

# fetch the recorded call for N[C@H](C(=O)O)c1ccc(O)cc1 here
inactive

# fetch the recorded call for CC(=O)O[C@H]1C[C@@H]2CC[C@@H]3[C@H](CC[C@@]4(C)[C@H]3C[C@H]([N+]3(C)CCCCC3)[C@@H]4OC(C)=O)[C@@]2(C)C[C@@H]1N1CCCCC1 here
inactive

# fetch the recorded call for C[C@]12CC[C@H]3[C@@H](CCC4=CC(=O)CC[C@@]43C)[C@@H]1CC[C@@H]2C(=O)O here
inactive

# fetch the recorded call for O=S1(=O)c2cccc3cccc(c23)N1CCCN1CCN(c2ccc(F)cc2)CC1 here
inactive

# fetch the recorded call for CCCCNc1ccc(C(=O)OCCN(C)C)cc1 here
inactive

# fetch the recorded call for O=c1[nH]c(=O)c2ccccc2o1 here
inactive

# fetch the recorded call for O=C(O)c1cccc(-c2noc(-c3ccccc3F)n2)c1 here
inactive

# fetch the recorded call for OCCN1CCN(CCCN2c3ccccc3C=Cc3ccccc32)CC1 here
inactive

# fetch the recorded call for CCN(Cc1ccc(Cl)nc1)/C(=C/[N+](=O)[O-])NC here
inactive

# fetch the recorded call for O=S(=O)(c1cccc2cnccc12)N1CCCNCC1 here
inactive

# fetch the recorded call for O=C(NCC1CN(c2ccc(N3CCOCC3=O)cc2)C(=O)O1)c1ccc(Cl)s1 (stereo unspecified) here
inactive

###

MEASUREMENT_CONTEXT: Ebola virus entry assay, ratio channel
Activity calls are given as the source filed them.
Mark one answer only. Choices: True = active, False = inactive

Examples from the recorded data:
INSERT INTO results (compound, class_label) VALUES
  ('O=C(O)Cn1c(C(=O)Nc2nc(-c3ccccc3Cl)cs2)cc2ccccc21', 'False'),
  ('NC1(c2ccccc2)CCCCC1', 'True'),
  ('CCN(CC)CCNC(=O)c1cc(Br)c(N)cc1OC', 'False');

# fetch the recorded call for Sc1ccccc1Cl here
False

# fetch the recorded call for Clc1ccc(Cn2c(CN3CCCC3)nc3ccccc32)cc1 here
True

# fetch the recorded call for CN1[C@@H]2CC[C@H]1CC(OC(=O)c1cc(Cl)cc(Cl)c1)C2 (some centres undefined) here
True

# fetch the recorded call for CCOC(=O)CN1CCCC1=O here
False

###

Tested on: KB-3-1
EXPERIMENT: Cytotoxic Profiling of Annotated Libraries Using Quantitative High-Throughput Screening (AID 1296008); further: on the % scale 0 is the no-effect control and ±100 the full control effect; nearly all actives have a fitted effect of over 60% in size
MEASUREMENT_CONTEXT: Five cell lines viability, CellTiter-Glo ATP luminescence, 48-72 h; stronger effect = lower value
Inconclusive results are not listed. Active and inactive are the calls of the source. The call rests on the fitted dose curve; in most records, active means well fitted inhibition curve with a large enough effect; inconclusive means small, poorly fitted or top-dose-only effect; inactive means flat fitted curve, though single readings scatter.
Would you mind telling me the reported max response of each entry?

Examples from the recorded data:
INSERT INTO results (compound, tgt, assay_metric, result) VALUES
  ('CN(C)CCc1c[nH]c2cccc(O)c12', 'KB-3-1', 'max response', '-8.17% (inactive)'),
  ('CN1C(=O)CN=C(c2ccccc2)c2cc([N+](=O)[O-])ccc21', 'KB-3-1', 'max response', '9.64% (inactive)'),
  ('COc1cc(C[C@@H](C)N)c(OC)cc1Br', 'KB-3-1', 'max response', '-0.0524% (inactive)'),
  ('NCc1cccnc1', 'KB-3-1', 'max response', '-3.91% (inactive)'),
  ('C[C@H]1C(=O)O[C@@H]2CCN3CC=C(COC(=O)[C@](C)(O)[C@]1(C)O)[C@H]23', 'KB-3-1', 'max response', '-11.3% (inactive)'),
  ('CN(C)CCc1c[nH]c2ccc(O)cc12', 'KB-3-1', 'max response', '2.29% (inactive)'),
  ('Clc1ccc(CO/N=C(\Cn2ccnc2)c2ccc(Cl)cc2Cl)c(Cl)c1', 'KB-3-1', 'max response', '0.479% (inactive)'),
  ('O=C1NCN(c2ccccc2)C12CCN(CCCOc1ccc(F)cc1)CC2', 'KB-3-1', 'max response', '25% (inactive)');

For each of the compounds below, note its max response.
1. Cc1nc2ccccc2c(=O)n1-c1ccccc1Cl
2. COP(=S)(OC)Oc1ccc(Sc2ccc(OP(=S)(OC)OC)cc2)cc1
3. CC1=C2[C@H]3OC(=O)[C@@H](C)[C@@H]3CC[C@@]2(C)C=CC1=O
4. N#Cc1nn(-c2c(Cl)cc(C(F)(F)F)cc2Cl)c(N)c1S(=O)C(F)(F)F (configuration not stated)

-1.49% (inactive)
1.06% (inactive)
27.1% (inactive)
-1.94% (inactive)
